# assayedSystem: Menin (Homo sapiens) (UniProt O00255)
# Sequence (O00255 whole entry, looked up): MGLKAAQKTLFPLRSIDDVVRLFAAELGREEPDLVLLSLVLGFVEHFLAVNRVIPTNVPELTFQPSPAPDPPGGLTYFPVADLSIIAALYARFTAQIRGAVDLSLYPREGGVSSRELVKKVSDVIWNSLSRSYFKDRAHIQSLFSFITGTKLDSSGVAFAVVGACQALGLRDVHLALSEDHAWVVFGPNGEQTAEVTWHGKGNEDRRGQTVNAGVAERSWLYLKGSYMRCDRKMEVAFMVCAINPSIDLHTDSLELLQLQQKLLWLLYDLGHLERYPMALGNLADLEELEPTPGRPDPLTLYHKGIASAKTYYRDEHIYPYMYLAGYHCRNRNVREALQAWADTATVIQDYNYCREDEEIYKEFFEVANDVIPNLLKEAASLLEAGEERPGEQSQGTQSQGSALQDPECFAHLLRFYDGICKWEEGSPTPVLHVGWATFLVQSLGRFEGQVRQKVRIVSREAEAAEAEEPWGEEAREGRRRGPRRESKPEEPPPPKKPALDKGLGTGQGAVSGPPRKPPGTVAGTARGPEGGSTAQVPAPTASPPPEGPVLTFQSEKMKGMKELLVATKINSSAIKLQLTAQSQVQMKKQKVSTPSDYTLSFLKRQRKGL
# assayProtocol: qHTS Assay for Inhibitors Targeting the Menin-MLL Interaction in MLL Related Leukemias: Competition With Texas Red Labeled MLL-derived Mutant Peptide
# measurementConditions: fluorescence polarization; series mostly up to 61.6 µM
Screen size: about 270,000 compounds; about 620 (0.23%) were called active. Inconclusive results (about 12%) are left out. The call rests on the fitted dose curve; in most records, active means well fitted inhibition curve with a large enough effect in the polarisation, with a control signal flat (not every such curve was filed as active); inconclusive means small, poorly fitted or top-dose-only effect, or effect the other way, or a change in a side signal; inactive means no such curve, though single readings can be large or run the other way; the % refers to the polarisation. The sample holds actives, similar compounds and a random draw of the others, so the mix is not that of the screen.
Reply using exactly one outcome from t for active, f for inactive

Assay outcome for O=C1CCC(C(=O)N2CCN(c3ccccc3Cl)CC2)CN1CC1CCCCC1 (stereo not given) : what was it?
f

Next compound: CC1CCN(CC(O)COc2ccc(C(=O)c3ccccc3)cc2)CC1 (stereo not given)
f

Next compound: CCOC(=O)c1ccc(NC(=O)c2ccc(NC(=O)C3CCCO3)cc2)cc1 (stereo not given)
f

Next compound: `O=C(COC(=O)c1c2c(nc3ccccc13)/C(=C\c1cccs1)CCC2)Nc1ccccc1Cl`
t

Next compound: `Cc1cccc(OCC(=O)Nc2ccc(NC(=O)c3ccco3)c(C)c2)c1`
f

Next compound: Cn1nccc1C(=O)N1CCCC(C(=O)c2ccc(Oc3ccccc3)cc2)C1 (stereo not given)
f

Others:
Assay outcome for Cc1ccc(SCC(CC(C)C)N2CCN(CCc3ccccc3)CCC2=O)cc1 (stereo not given) : what was it?
f

Next compound: CCC(C(=O)OC)n1cnc2scc(-c3ccc(C)cc3)c2c1=O (stereo not given)
f

Next compound: `Cc1noc(C)c1-c1ccc2ncnc(NCc3ccc4[nH]ccc4c3)c2c1`
f

Next compound: `Cc1ccc(O)c(/C=N/NC(=O)COc2ccc3c(C)cc(=O)oc3c2)c1`
f

---

# assayedSystem: Menin (Homo sapiens) (UniProt O00255)
# assayProtocol: qHTS Assay for Inhibitors Targeting the Menin-MLL Interaction in MLL Related Leukemias: Competition With Texas Red Labeled MLL-derived Mutant Peptide
# measurementConditions: fluorescence polarization; series mostly up to 61.6 µM
Among all 270,000 compounds or so, about 620 (0.23%) were called active. Inconclusive results (about 12%) are left out. Calls follow the shape of the dose curve; as a rule, active = well fitted inhibition curve with a large enough effect in the polarisation, with a control signal flat (not every such curve was filed as active); inconclusive = small, poorly fitted or top-dose-only effect, or effect the other way, or a change in a side signal; inactive = no such curve, though single readings can be large or run the other way; the % refers to the polarisation. The sample holds actives, similar compounds and a random draw of the others, so the mix is not that of the screen.
Reply using exactly one outcome from active, inactive

Past entries and their recorded results:
Assay outcome for `Cc1ccc(OCC(=O)Nc2ccc(N3CCN(C(=O)c4ccco4)CC3)cc2)c(C)c1` : what was it?
inactive

Next molecule: `COc1ccc(NC(=O)c2cc(-c3cc(OC)c(OC)c(OC)c3)nc3ccccc23)c(OC)c1`
inactive

Next molecule: `CNC(=O)[C@]1(C(F)(F)F)C[C@H](CCc2ccccc2)CCCO1`
inactive

Next molecule: `COc1cccc(N(CC(=O)NCc2ccccc2)C(=O)CCC(=O)Nc2nccs2)c1`
inactive

Next molecule: CCOC(=O)C(Cc1ccc(N)cc1)N1C(=O)c2ccccc2C1=O (configuration not stated)
inactive

Others:
Assay outcome for `CCN(CC)c1ccc(C(=O)Nn2c(C)nc3ccccc3c2=O)cc1` : what was it?
inactive

Next molecule: `COCCOC(=O)c1sc(=S)n(CCOC)c1N`
active

Next molecule: `COc1ccc(-c2nc3c(s2)CCc2onc(-c4ccc(OC)cc4)c2-3)cc1`
inactive

Next molecule: Cc1c(C(=O)NCC(c2ccco2)N2CCCC2)oc2ccc(Cl)cc12 (configuration not stated)
inactive

Next molecule: COc1cccc(/C=C2\Sc3ccc(C(=O)NCC4CCCO4)cc3N(C)C2=O)c1 (configuration not stated)
inactive

Next molecule: `Cc1c(C)c2ccc(OCC(=O)N3CCN(c4cccc(Cl)c4)CC3)cc2oc1=O`
inactive

Next molecule: `COc1ccccc1N1CCN(S(=O)(=O)CCNC(=O)c2ccc(OC(C)C)cc2)CC1`
inactive

Next molecule: `COc1ccc(CN2CCC(=O)c3ccccc3S2(=O)=O)cc1`
inactive

Next molecule: Cc1cccc(OC(C)C(=O)N2CCc3ccccc3C2)c1 (configuration not stated)
inactive

Next molecule: `CCOCCCn1c(SCC(=O)Nc2cc(OC)ccc2OC)nc2ccccc2c1=O`
inactive

Next molecule: CC1C(=O)C(C)C(c2ccc(O)cc2)NC1c1ccc(O)cc1 (configuration not stated)
inactive

Next molecule: `O=C(CN1C(=O)COc2ccc(Cl)cc21)N1CCOCC1`
inactive

Next molecule: `c1ccc(Cc2ccc(OCCn3ccnc3)cc2)cc1`
inactive

Next molecule: CCC(CC)COC(=O)C1=C(C)NC(=O)NC1c1ccc([N+](=O)[O-])cc1 (configuration not stated)
inactive

---

# assayedSystem: Menin (Homo sapiens) (UniProt O00255)
# assayProtocol: qHTS Assay for Inhibitors Targeting the Menin-MLL Interaction in MLL Related Leukemias: Competition With Texas Red Labeled MLL-derived Mutant Peptide; further: potency means the concentration at half of the fitted maximal effect
# measurementConditions: fluorescence polarization; series mostly up to 61.6 µM
# From the text: qHTS Assay for Inhibitors Targeting the Menin-MLL Interaction in MLL Related Leukemias NIH Chemical Genomics Center [NCGC] NIH Molecular Libraries Probe Centers Network [MLPCN] […] We have developed and optimized a fluorescence polarization-based assay for the identification of Menin-MLL inhibitors. […]
In all, about 270,000 compounds went through this assay and about 620 (0.23%) were called active. Inconclusive results (about 12%) are left out. What follows is part of a selection rich in actives, with near analogues and random picks from the rest.
measuredEndpoint: Potency

Worked examples follow.
I'd like to know its Potency. The compound in question is `CCc1ccc(NC(=O)C(=O)NNC(=O)c2cccs2)cc1`
inactive

Next compound: `COc1ccc(CNc2ncnc3ccc(-c4cccnc4)cc23)c(OC)c1`
inactive

Next compound: `COCCNc1ncnc2ccc(-c3cccnc3)cc12`
31.6 µM (active)

Next compound: `COc1ccc(N2CCN(S(=O)(=O)CCNC(=O)C34CC5CC(CC(C5)C3)C4)CC2)cc1`
inactive

Next compound: O=S(=O)(NC1CCCCC1N1CCN(c2ccccc2F)CC1)c1ccccc1 (stereo unspecified)
inactive

Next compound: `Cc1ccc(N(Cc2cc(=O)[nH]c3ccccc23)C(=O)CCl)cc1`
10 µM (active)

Now let's try a different one.
I'd like to know its Potency. The compound in question is `Cc1cccc(NC(=S)NCCc2ccc(Cl)cc2)c1C`
inactive

---

# assayedSystem: Menin (Homo sapiens) (UniProt O00255)
# assayProtocol: qHTS Assay for Inhibitors Targeting the Menin-MLL Interaction in MLL Related Leukemias: Competition With Texas Red Labeled MLL-derived Mutant Peptide
# measurementConditions: fluorescence polarization; series mostly up to 61.6 µM
Out of some 270,000 compounds screened, about 620 (0.23%) were called active. Not shown: some 12% with an inconclusive outcome. The call rests on the fitted dose curve; in most records, active means well fitted inhibition curve with a large enough effect in the polarisation, with a control signal flat (not every such curve was filed as active); inconclusive means small, poorly fitted or top-dose-only effect, or effect the other way, or a change in a side signal; inactive means no such curve, though single readings can be large or run the other way; the % refers to the polarisation. Shown is part of a subset that was picked to be rich in actives.
Reply using exactly one outcome from active, inactive

Past entries and their recorded results:
Assay outcome for `N#Cc1ccc(-c2ccc(Cl)cc2)nc1Oc1ccc(F)cc1` : what was it?
active

Next compound: Cc1ccc(CNC(=O)C2CCCN2S(=O)(=O)c2ccc3c(c2)C(C)(C)C(=O)N3C)cc1 (stereo unspecified)
inactive

Others:
Assay outcome for `COc1ccc(CNC(=O)/C(C#N)=C/c2cccc(OC)c2OC)cc1` : what was it?
inactive

Next compound: `O=S(=O)(Nc1cccc(Oc2ccc(Cl)cc2)n1)c1ccc(F)cc1`
inactive

Next compound: `CCN1CC=C2C(C#N)=C(N)C(C#N)(C#N)[C@H](c3ccoc3)[C@H]2C1`
active

Next compound: `CCOC(=O)N1CC=C2C(C#N)=C(N)C(C#N)(C#N)[C@H](c3cccs3)[C@H]2C1`
inactive

Next compound: `COc1ccc(N2CCN(C(=O)[C@@H](NC(=O)c3cc(OC)cc(OC)c3)C(C)C)CC2)cc1`
inactive

Next compound: `CC(C)C[C@@H](COc1ccccc1)N1CCN(CC(C)C)CCC1=O`
inactive

Next compound: `CCC(CC)c1nnc(NC(=O)C2CCN(C(=O)c3ccco3)CC2)s1`
inactive

Next compound: COc1ccc(C2/C=C\CN(C(=O)c3ccc(C)cc3)C(Cc3ccccc3)C(=O)N2Cc2ccc(F)cc2)cc1 (stereo unspecified)
inactive

Next compound: CCc1ccc(CN(C)C(=O)C2CCC(=O)N(Cc3cccc(OC)c3)C2)nc1 (stereo unspecified)
inactive

Next compound: CCc1ccc(C(CNc2nc(C(F)(F)F)nc3ccccc23)N(C)C)cc1 (stereo unspecified)
inactive

Next compound: `Cc1ccccc1Nc1nc(-c2cccnc2)cs1`
inactive

---

# assayedSystem: Menin (Homo sapiens)
# assayProtocol: qHTS Assay for Inhibitors Targeting the Menin-MLL Interaction in MLL Related Leukemias: Competition With Texas Red Labeled MLL-derived Mutant Peptide
# measurementConditions: fluorescence polarization; series mostly up to 61.6 µM
Screen size: about 270,000 compounds; about 620 (0.23%) were called active. Roughly 12% stayed inconclusive and do not appear here. Calls follow the shape of the dose curve; as a rule, active = well fitted inhibition curve with a large enough effect in the polarisation, with a control signal flat (not every such curve was filed as active); inconclusive = small, poorly fitted or top-dose-only effect, or effect the other way, or a change in a side signal; inactive = no such curve, though single readings can be large or run the other way; the % refers to the polarisation. Many of the other results were omitted from the sample, so actives are more common in it than they were.
Reply using exactly one outcome from Y for active, N for inactive

Past entries and their recorded results:
Assay outcome for `COc1ccc(CSc2nnnn2-c2ccc(O)cc2)cc1F` : what was it?
N

Next compound: `Cc1cc(C)nc(N/N=C/c2c(CO)cnc(C)c2O)n1`
N

Next compound: `Cc1ccc(C(=O)NNC(=O)c2cc3cc4ccccc4nc3s2)cc1`
Y

Next compound: `CCOc1ccc(NC(=O)C2CCN(C(=O)N3CCOc4ccccc43)CC2)cc1`
N

Next compound: COC(=O)C(CC(C)C)NS(=O)(=O)c1cc(Br)ccc1Br (stereo unspecified)
N

Next compound: CC1CCCCC1NC(=O)CCS(=O)(=O)c1ccc2c(c1)NC(=O)CO2 (stereo unspecified)
N

Next compound: CCC(C)(C)NC(=O)C(c1ccc(OC)cc1)N(C(=O)CCC(=O)Nc1cc(C)on1)c1ccc(OC)cc1OC (stereo unspecified)
N

Next compound: CC1CC(C)CN(CCCNC(=O)c2csc3c2CCCCC3)C1 (stereo unspecified)
N

Next compound: `O=C(N/C(=C/c1ccc(Cl)cc1)C(=O)N1CCCCC1)c1ccco1`
N

Next compound: `CCn1c(Cc2ccc(OC)cc2)nnc1SCC(=O)Nc1ccc(N2CCOCC2)cc1`
N

Others:
Assay outcome for CCC1Sc2ccc(S(=O)(=O)CCC(=O)NCc3cccs3)cc2NC1=O (stereo unspecified) : what was it?
N

Next compound: COc1cc(CN2CCCC(C(=O)c3ccc(SC)cc3)C2)cc(Cl)c1O (stereo unspecified)
N

Next compound: O=C(O)C1CC=CC2CCN(C3CCCCC3)C(=O)C21 (stereo unspecified)
N

Values from PubChem BioAssay AID1768
